# ASSAY: chemical genetic growth profiling, strain panel (AID 1159580);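 note: tested at 20 µM; growth read once vehicle control cultures reached saturation at 30 °C; 1 = growth at the plate median or of vehicle wells; lower values mean less growth of the strain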
# COND: S. cerevisiae deletion strains, growth OD, locus YOR069W, strain VPS5, active compounds read low
Hit rate of the full screen: of about 5,500 compounds, about 2,000 (36%) were called active. Not shown: some 18% with an inconclusive outcome. The list shows a part of the results.
QUANTITY_NAME: normalized growth

- COMPOUND: "CCCc1occc(=O)c1/C=C/O"
  QUANTITY_NAME: "normalized growth"
  RECORDED_RESULT: 0.974
- COMPOUND: "CC1(C)C(C(Cl)Cl)C2(Cl)C(Cl)C(Cl)C1(Cl)C2(Cl)Cl (stereo not given)"
  QUANTITY_NAME: "normalized growth"
  RECORDED_RESULT: 0.985
- COMPOUND: "CCCC1O[C@@H]2CC3C4CCC5=CC(=O)C=CC5(C)C4[C@@H](O)CC3(C)[C@]2(C(=O)CO)O1 (stereo not given in full)"
  QUANTITY_NAME: "normalized growth"
  RECORDED_RESULT: 1
- COMPOUND: "Cc1occc(=O)c1O"
  QUANTITY_NAME: "normalized growth"
  RECORDED_RESULT: 1.01
- COMPOUND: "Oc1c(Cl)cc(Cl)c2cccnc12"
  QUANTITY_NAME: "normalized growth"
  RECORDED_RESULT: 0.046
- COMPOUND: "NCCCC[C@H](N[C@@H](CCc1ccccc1)C(=O)O)C(=O)N1CCC[C@H]1C(=O)O"
  QUANTITY_NAME: "normalized growth"
  RECORDED_RESULT: 0.998
- COMPOUND: "CC(C)NCC(O)c1ccc2ccccc2c1 (stereo not given)"
  QUANTITY_NAME: "normalized growth"
  RECORDED_RESULT: 1.01
- COMPOUND: "c1ccc2c(c1)cc1ccc3cccc4ccc2c1c34"
  QUANTITY_NAME: "normalized growth"
  RECORDED_RESULT: 1.04
- COMPOUND: "C=C[C@@H](C1=CC(=O)C(OC)=C(OC)C1=O)c1ccccc1"
  QUANTITY_NAME: "normalized growth"
  RECORDED_RESULT: 0.314
- COMPOUND: "CC(=O)Nc1cc([As](=O)(O)O)ccc1O"
  QUANTITY_NAME: "normalized growth"
  RECORDED_RESULT: 0.998
- COMPOUND: "COc1cc2c(c(OC)c1OC)-c1ccc(O)c(=O)cc1[C@@H](NC(C)=O)CC2"
  QUANTITY_NAME: "normalized growth"
  RECORDED_RESULT: 0.896
- COMPOUND: "Nc1ccc(S(=O)(=O)Nc2ccccn2)cc1"
  QUANTITY_NAME: "normalized growth"
  RECORDED_RESULT: 1.01
- COMPOUND: "O[N+]1=CC=CCC1=S.On1ccccc1=S.[Zn]"
  QUANTITY_NAME: "normalized growth"
  RECORDED_RESULT: 0.0493
- COMPOUND: "COC(C)(C)CCC[C@H](C)C/C=C/C(C)=C/C(=O)OC(C)C"
  QUANTITY_NAME: "normalized growth"
  RECORDED_RESULT: 1
- COMPOUND: "CO[C@H]1/C=C/O[C@@]2(C)Oc3c(C)c(O)c4c(O)c(c(/C=N/N5CCN(C)CC5)c(O)c4c3C2=O)NC(=O)/C(C)=C\\C=C\\C(C)[C@H](O)[C@@H](C)[C@@H](O)[C@@H](C)[C@@H](OC(C)=O)[C@@H]1C (stereo not given in full)"
  QUANTITY_NAME: "normalized growth"
  RECORDED_RESULT: 1.01
- COMPOUND: "CC(=O)Oc1ccc(Cl)c2cccnc12"
  QUANTITY_NAME: "normalized growth"
  RECORDED_RESULT: 0.0514
- COMPOUND: "C=CC(C)(O)CC/C=C(\\C)CCC=C(C)C (stereo not given)"
  QUANTITY_NAME: "normalized growth"
  RECORDED_RESULT: 0.984
- COMPOUND: "NCC(CC(=O)O)c1ccc(Cl)s1 (stereo not given)"
  QUANTITY_NAME: "normalized growth"
  RECORDED_RESULT: 0.983
- COMPOUND: "COc1ccccc1OCCNCC(O)COc1cccc2[nH]c3ccccc3c12 (stereo not given)"
  QUANTITY_NAME: "normalized growth"
  RECORDED_RESULT: 0.997
- COMPOUND: "C=CC(C1=CC(=O)C(OC)=CC1=O)c1ccccc1 (stereo not given)"
  QUANTITY_NAME: "normalized growth"
  RECORDED_RESULT: 0.958
- COMPOUND: "CC(C)=CCC[C@](C)(O)C1CC=C(C)CC1 (stereo not given in full)"
  QUANTITY_NAME: "normalized growth"
  RECORDED_RESULT: 1.02
- COMPOUND: "CC(=O)OC1CC(OC(C)=O)C2(C)C(CC(OC(C)=O)C3(C)C2CCC2(C)C(c4ccoc4)CC4OC423)C1(C)C (stereo not given)"
  QUANTITY_NAME: "normalized growth"
  RECORDED_RESULT: 1.01
- COMPOUND: "Nc1ncnc2c1ncn2C1C[C@H](O)[C@@H](CO)O1 (stereo not given in full)"
  QUANTITY_NAME: "normalized growth"
  RECORDED_RESULT: 1
- COMPOUND: "O=C(CCCCCCCCCCCCC1CCCC1)Nc1ccc(S(=O)(=O)c2ccc(NC(=O)CCCCCCCCCCCCC3CCCC3)cc2)cc1"
  QUANTITY_NAME: "normalized growth"
  RECORDED_RESULT: 1.01
- COMPOUND: "CC1(C)C(=O)C=C[C@@]2(C)C1=C(O)C(=O)[C@]1(C)C2CC[C@@]2(C)[C@H](c3ccoc3)C[C@H]3O[C@]321 (stereo not given in full)"
  QUANTITY_NAME: "normalized growth"
  RECORDED_RESULT: 0.889
- COMPOUND: "CC(=O)O[C@@H]1C[C@@]2(C)[C@H](c3ccoc3)C[C@H]3O[C@]32[C@]2(C)C(=O)C(O)=C3C(C)(C)C(=O)C=C[C@]3(C)C12 (stereo not given in full)"
  QUANTITY_NAME: "normalized growth"
  RECORDED_RESULT: 0.969
- COMPOUND: "Nc1nc2ncc(C(=O)O)nc2c(=O)[nH]1"
  QUANTITY_NAME: "normalized growth"
  RECORDED_RESULT: 1.01
- COMPOUND: "Nc1ncn([C@@H]2O[C@H](CO)[C@@H](O)[C@H]2O)c(=O)n1"
  QUANTITY_NAME: "normalized growth"
  RECORDED_RESULT: 1.01
- COMPOUND: "C[C@H]1[C@H]2CCC3C4CC=C5C[C@@H](N(C)C)CC[C@]5(C)C4CC[C@@]32CN1C (stereo not given in full)"
  QUANTITY_NAME: "normalized growth"
  RECORDED_RESULT: 1
- COMPOUND: "CCCCC1(COC(=O)CCC(=O)O)C(=O)N(c2ccccc2)N(c2ccccc2)C1=O"
  QUANTITY_NAME: "normalized growth"
  RECORDED_RESULT: 1
- COMPOUND: "CCCC(C)C1(CC)C(=O)N=C(S)NC1=O (stereo not given)"
  QUANTITY_NAME: "normalized growth"
  RECORDED_RESULT: 1.01
- COMPOUND: "Oc1ccc(Cl)c2cccnc12"
  QUANTITY_NAME: "normalized growth"
  RECORDED_RESULT: 0.0472
- COMPOUND: "CS(=O)(=O)CCCCN=C=S"
  QUANTITY_NAME: "normalized growth"
  RECORDED_RESULT: 0.891
- COMPOUND: "Cc1ccc2cc3c(ccc4ccccc43)c3c2c1CC3"
  QUANTITY_NAME: "normalized growth"
  RECORDED_RESULT: 0.988
- COMPOUND: "O=[N+]([O-])c1cc(O)c(O)c([N+](=O)[O-])c1"
  QUANTITY_NAME: "normalized growth"
  RECORDED_RESULT: 1
- COMPOUND: "CC1(C)CC2C1(O)CCC1(C)C=CC(O)C21CO (stereo not given)"
  QUANTITY_NAME: "normalized growth"
  RECORDED_RESULT: 0.994
- COMPOUND: "O=c1[nH]c(=O)n(C2C[C@@H](O)[C@@H](CO)O2)cc1F (stereo not given in full)"
  QUANTITY_NAME: "normalized growth"
  RECORDED_RESULT: 1.01
- COMPOUND: "CCOP(=S)(OCC)SCn1c(=O)oc2cc(Cl)ccc21"
  QUANTITY_NAME: "normalized growth"
  RECORDED_RESULT: 1
- COMPOUND: "C=CC(C1=CC(=O)C=CC1=O)c1ccccc1 (stereo not given)"
  QUANTITY_NAME: "normalized growth"
  RECORDED_RESULT: 0.982
- COMPOUND: "CN[C@H](CC(=O)O)C(=O)O"
  QUANTITY_NAME: "normalized growth"
  RECORDED_RESULT: 0.991
- COMPOUND: "C=CC(C1=CC(=O)C(OC)=CC1=O)c1ccc(O)cc1 (stereo not given)"
  QUANTITY_NAME: "normalized growth"
  RECORDED_RESULT: 0.986
- COMPOUND: "CCC(Cc1c(I)cc(I)c(N)c1I)C(=O)O (stereo not given)"
  QUANTITY_NAME: "normalized growth"
  RECORDED_RESULT: 0.999
- COMPOUND: "Nc1ccc(S(=O)(=O)Nc2ccc(Cl)nn2)cc1"
  QUANTITY_NAME: "normalized growth"
  RECORDED_RESULT: 1.01
- COMPOUND: "COc1c2c(cc3c1OCO3)CCN(C)C2"
  QUANTITY_NAME: "normalized growth"
  RECORDED_RESULT: 1.01
- COMPOUND: "C/C=C/c1ccc2c(c1)OCO2"
  QUANTITY_NAME: "normalized growth"
  RECORDED_RESULT: 1.01

Reference for the values: PubChem BioAssay AID1159580
